The entries below come with measured pIC50 values attached.
Biological target: human GPR17 receptor (Homo sapiens, UniProt Q13304)
Construct: host or cells: HEK-293
Sequence (Q13304 whole entry): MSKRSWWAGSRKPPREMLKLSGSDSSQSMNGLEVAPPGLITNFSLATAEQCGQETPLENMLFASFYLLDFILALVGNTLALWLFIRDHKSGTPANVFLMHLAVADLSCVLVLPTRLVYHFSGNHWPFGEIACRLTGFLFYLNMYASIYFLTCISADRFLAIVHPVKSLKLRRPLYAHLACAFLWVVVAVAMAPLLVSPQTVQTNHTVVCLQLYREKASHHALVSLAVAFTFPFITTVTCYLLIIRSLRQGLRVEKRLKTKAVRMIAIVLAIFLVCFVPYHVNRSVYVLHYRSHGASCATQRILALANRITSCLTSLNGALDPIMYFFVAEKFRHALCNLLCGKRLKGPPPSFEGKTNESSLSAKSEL
Assay: Calcium mobilization functional assay (Fluo-8, FLIPR TETRA) in HEK-293 hGPR17 (Gα-q assay)
Type: cell-based
Details: antagonism of MDL29,951 (~EC80) induced Ca2+ signal; cell line (HEK-293 hGPR17 or HEK-293 Suchi5 hGPR17) not given
pIC50: −log10 of the molar value.

Known pIC50 results, listed for orientation:
COc1ccnc(F)c1-c1cc(S(=O)(=O)Nc2cc(F)c(C(F)(F)F)cc2F)c[nH]1 [Cpd 247]: 5.30 to 6.30
Cc1ccc(NS(=O)(=O)c2c[nH]c(-c3ccccc3)c2)c(C)n1 [Cpd 101]: 5.30 to 6.30
N#Cc1ccc(NS(=O)(=O)c2c[nH]c(C3=CCCCC3)c2)c(F)c1 [Cpd 358]: > 6.30
CCOc1cc(F)c(NS(=O)(=O)c2c[nH]c(-c3ccccn3)c2)cc1F [Cpd 237]: 5.30 to 6.30
O=S(=O)(Nc1ccc(C(F)(F)F)c(Cl)c1F)c1c[nH]c(-c2ccccn2)c1 [Cpd 335]: 4.30 to 5.30

Using the record for N#Cc1cnc(-c2cc(S(=O)(=O)Nc3cc(F)c(OC(F)F)cc3F)c[nH]2)s1 [Cpd 617] , report its pIC50.
4.30 to 5.30

Entry to check: Cc1ccccc1Cc1c[nH]cc1S(=O)(=O)Nc1ccc(C#N)cc1F [Cpd 384]
5.30 to 6.30

Okay, and N#Cc1ccc(NS(=O)(=O)c2c[nH]c(-c3c(Cl)cccc3Cl)c2)c(F)c1 [Cpd 270] ?
5.30 to 6.30

Also O=S(=O)(Nc1cc(F)c(C(F)(F)F)cc1F)c1c[nH]c(-c2cccc(Cl)c2F)c1 [Cpd 327] , if possible.
5.30 to 6.30
